The reader will find pIC50 measurements below, all made with PI3 Kinase γ (Homo sapiens).
Please keep in mind that pIC50 is minus log10 of the molar concentration; only the number is needed.

The value of pIC50 recorded for O=C(Nc1ccc(-c2nc(N3CCOCC3)c3nnn(C4CCNCC4)c3n2)cc1)Nc1cccnc1 when tested on PI3 Kinase γ (Homo sapiens) reads 7.31

----------
biological target: PI3 Kinase γ (Homo sapiens, UniProt P48736)
Sequence (P48736 whole entry): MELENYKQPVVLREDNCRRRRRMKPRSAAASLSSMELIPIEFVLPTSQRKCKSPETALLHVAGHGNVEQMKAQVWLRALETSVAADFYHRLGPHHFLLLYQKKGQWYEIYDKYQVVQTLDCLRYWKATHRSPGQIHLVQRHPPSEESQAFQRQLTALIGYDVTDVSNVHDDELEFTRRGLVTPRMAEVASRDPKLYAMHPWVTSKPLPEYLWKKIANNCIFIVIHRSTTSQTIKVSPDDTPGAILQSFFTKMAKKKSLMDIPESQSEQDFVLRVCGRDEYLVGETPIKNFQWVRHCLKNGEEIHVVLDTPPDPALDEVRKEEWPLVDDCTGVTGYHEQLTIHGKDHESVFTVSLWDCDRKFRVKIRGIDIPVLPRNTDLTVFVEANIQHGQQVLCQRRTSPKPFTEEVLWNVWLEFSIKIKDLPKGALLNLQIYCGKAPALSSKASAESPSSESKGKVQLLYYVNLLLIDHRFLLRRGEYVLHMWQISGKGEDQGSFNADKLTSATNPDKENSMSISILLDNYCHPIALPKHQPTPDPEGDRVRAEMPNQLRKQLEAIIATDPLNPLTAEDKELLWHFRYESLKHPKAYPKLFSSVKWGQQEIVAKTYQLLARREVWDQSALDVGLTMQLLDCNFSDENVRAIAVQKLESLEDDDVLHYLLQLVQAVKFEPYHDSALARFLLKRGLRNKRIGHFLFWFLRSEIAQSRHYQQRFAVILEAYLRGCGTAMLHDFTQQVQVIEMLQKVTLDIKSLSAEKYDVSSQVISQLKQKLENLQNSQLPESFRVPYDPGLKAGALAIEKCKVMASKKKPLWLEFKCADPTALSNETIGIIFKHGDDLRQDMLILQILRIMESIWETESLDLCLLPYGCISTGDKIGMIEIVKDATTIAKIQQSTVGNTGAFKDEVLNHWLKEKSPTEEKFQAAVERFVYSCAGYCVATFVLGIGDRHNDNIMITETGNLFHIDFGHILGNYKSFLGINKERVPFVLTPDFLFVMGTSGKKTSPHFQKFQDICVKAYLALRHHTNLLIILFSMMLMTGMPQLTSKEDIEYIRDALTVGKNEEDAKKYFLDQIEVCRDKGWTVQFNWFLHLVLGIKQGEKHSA
just bin them by IC50: low = under 100 nM, intermediate = from 100 nM up to 600 nM, high = 600 nM and over

Please review the entries below; each comes with its answer.
| structure smiles | class name |
| --- | --- |
| CCCCN1CCC(n2nnc3c(N4CCOCC4)nc(-c4ccc(NC(=O)NCCN(C)C)cc4)nc32)CC1 | high |
| Oc1cncc(-c2nc(N3CCOCC3)c3nnn(C4CCN(Cc5ccc(F)cc5)CC4)c3n2)c1 | low |
| CCn1nnc2c(N3CCOC[C@@H]3C)nc(-c3ccc(NC(=O)Nc4ccc(N5CCN(C)CC5)cc4)cc3)nc21 | low |
| CC(=O)N1CCN(CCn2nnc3c(N4CCOCC4)nc(-c4cccc(O)c4)nc32)CC1 | high |
| CN(C)CCNC(=O)Cn1nnc2c(N3CCOCC3)nc(-c3cccc(CO)c3)nc21 | high |
| Cc1ccc(CN2CCC(n3nnc4c(N5CCOCC5)nc(-c5ccc(NC(=O)NCCN(C)C)cc5)nc43)CC2)s1 | intermediate |
| O=C(NCCCN1CCCC1)c1ccc(Cn2nnc3c(N4CCOCC4)nc(-c4cccc(O)c4)nc32)cc1 | high |
| CN(C)CCNC(=O)c1ccc(Cn2nnc3c(N4CCOCC4)nc(-c4cccc(O)c4)nc32)cc1 | high |

Prompt: Band of CCn1nnc2c(N3CCOCC3)nc(-c3ccc(NC(=O)Nc4ccnc(C)c4)cc3)nc21 ?
Completion: low

Prompt: Sort CCn1nnc2c(N3CCOCC3)nc(-c3ccc(NC(=O)Nc4ccc(N5CCN(C)CC5)cc4)cc3)nc21 into one of the categories.
Completion: low

Prompt: # bin label for CCn1nnc2c(N3CCOCC3)nc(-c3ccc(NC(=O)Nc4ccc(C(=O)NCCCN(C)C)cc4)cc3)nc21
Completion: low

Prompt: Place this molecule in its band: O=C(Nc1cccnc1)c1ccc(Cn2nnc3c(N4CCOCC4)nc(-c4cccc(O)c4)nc32)cc1
Completion: intermediate

Prompt: Record Oc1cccc(-c2nc(N3CCOCC3)c3nnn(C4CCN(Cc5ccccn5)CC4)c3n2)c1 — which class?
Completion: high

Prompt: Kindly identify the class of O=C(Cn1nnc2c(N3CCOCC3)nc(-c3cccc(CO)c3)nc21)Nc1ccc(F)cc1 .
Completion: high

Prompt: Where would CCn1nnc2c(N3CCOCC3)nc(-c3ccc(NC(=O)Nc4ccc(C(=O)N5CCC(N6CCCCC6)CC5)cc4)cc3)nc21 land among the classes by reported IC50?
Completion: low

Prompt: Which band does CC(C)n1nnc2c(N3CCOCC3)nc(-c3ccc(NC(N)=O)cc3)nc21 fall in?
Completion: high

Prompt: State the band of CCn1nnc2c(N3CCOCC3)nc(-c3ccc(NC(=O)NC4CCNCC4)cc3)nc21
Completion: high

----------
target: PI3 Kinase α (Homo sapiens, UniProt P42336)
Sequence (P42336 whole entry): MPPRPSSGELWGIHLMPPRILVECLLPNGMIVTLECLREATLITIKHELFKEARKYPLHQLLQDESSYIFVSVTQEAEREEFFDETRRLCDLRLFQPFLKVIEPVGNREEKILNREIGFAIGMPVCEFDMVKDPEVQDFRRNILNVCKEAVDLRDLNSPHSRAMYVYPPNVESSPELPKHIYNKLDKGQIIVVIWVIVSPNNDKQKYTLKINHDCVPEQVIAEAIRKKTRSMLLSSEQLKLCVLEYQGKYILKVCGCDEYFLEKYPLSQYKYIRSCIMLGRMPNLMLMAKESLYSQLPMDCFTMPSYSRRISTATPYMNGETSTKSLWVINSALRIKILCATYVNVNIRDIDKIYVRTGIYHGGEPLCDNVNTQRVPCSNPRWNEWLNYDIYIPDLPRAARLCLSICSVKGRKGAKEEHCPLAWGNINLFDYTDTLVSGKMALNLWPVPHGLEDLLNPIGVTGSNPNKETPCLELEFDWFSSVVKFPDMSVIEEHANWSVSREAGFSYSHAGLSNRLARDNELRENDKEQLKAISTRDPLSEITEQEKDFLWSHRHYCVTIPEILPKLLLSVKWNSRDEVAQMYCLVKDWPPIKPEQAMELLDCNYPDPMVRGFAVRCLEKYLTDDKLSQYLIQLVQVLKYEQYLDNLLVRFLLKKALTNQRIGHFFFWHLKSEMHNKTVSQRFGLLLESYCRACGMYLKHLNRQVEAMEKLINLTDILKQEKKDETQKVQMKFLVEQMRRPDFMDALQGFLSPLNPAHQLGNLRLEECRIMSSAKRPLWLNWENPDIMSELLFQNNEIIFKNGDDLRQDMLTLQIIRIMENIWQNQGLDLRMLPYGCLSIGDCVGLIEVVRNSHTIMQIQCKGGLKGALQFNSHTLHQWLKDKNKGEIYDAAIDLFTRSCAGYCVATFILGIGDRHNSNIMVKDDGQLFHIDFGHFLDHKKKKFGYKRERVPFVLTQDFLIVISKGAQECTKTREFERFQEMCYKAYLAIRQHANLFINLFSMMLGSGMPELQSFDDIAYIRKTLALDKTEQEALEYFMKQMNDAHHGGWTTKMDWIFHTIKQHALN
Sequence (P27986 whole entry partner): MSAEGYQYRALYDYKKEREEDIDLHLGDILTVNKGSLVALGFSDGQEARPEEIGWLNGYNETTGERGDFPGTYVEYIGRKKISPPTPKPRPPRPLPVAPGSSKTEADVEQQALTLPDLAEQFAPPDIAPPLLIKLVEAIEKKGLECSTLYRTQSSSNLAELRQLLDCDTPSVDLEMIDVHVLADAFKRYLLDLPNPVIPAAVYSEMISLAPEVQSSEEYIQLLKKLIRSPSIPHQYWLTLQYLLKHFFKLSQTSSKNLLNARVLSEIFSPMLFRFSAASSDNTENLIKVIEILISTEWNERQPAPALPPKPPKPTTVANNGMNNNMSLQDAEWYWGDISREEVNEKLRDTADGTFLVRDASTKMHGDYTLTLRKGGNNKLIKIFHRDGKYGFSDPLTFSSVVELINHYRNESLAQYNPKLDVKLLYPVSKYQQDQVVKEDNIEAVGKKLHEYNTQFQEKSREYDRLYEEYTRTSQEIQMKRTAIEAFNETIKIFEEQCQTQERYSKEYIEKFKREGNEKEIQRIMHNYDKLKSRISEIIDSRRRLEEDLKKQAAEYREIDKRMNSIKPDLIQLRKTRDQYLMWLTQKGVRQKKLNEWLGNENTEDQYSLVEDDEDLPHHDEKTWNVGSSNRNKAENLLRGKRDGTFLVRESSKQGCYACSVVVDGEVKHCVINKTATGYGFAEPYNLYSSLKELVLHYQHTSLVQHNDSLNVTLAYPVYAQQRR
IC50 strictly under 100 nM means criterion met; at 100 nM or over means criterion not met.

Before answering, review these 5 worked examples.
| compound | test system | class name |
| --- | --- | --- |
| CC(C)(C)OC(=O)N1CCN(CCn2nnc3c(N4CCOCC4)nc(-c4cccc(O)c4)nc32)CC1 [Example 97] | PI3 Kinase α (Homo sapiens, UniProt P42336) | criterion not met |
| Cn1cccc1CN1CCC(n2nnc3c(N4CCOCC4)nc(-c4cncc(O)c4)nc32)CC1 [Example 19] | PI3 Kinase α (Homo sapiens, UniProt P42336) | criterion met |
| O=C(Nc1ccc(Cn2nnc3c(N4CCOCC4)nc(-c4cccc(O)c4)nc32)cc1)c1ccc(Cl)cc1 [Example 197] | PI3 Kinase α (Homo sapiens, UniProt P42336) | criterion met |
| CC(C)n1nnc2c(N3CCOCC3)nc(-c3ccc(NC(=O)Nc4ccc(N(C)C)cc4)cc3)nc21 [Example 86] | PI3 Kinase α (Homo sapiens, UniProt P42336) | criterion met |
| CCC(=O)N1CCN(CCn2nnc3c(N4CCOCC4)nc(-c4cccc(O)c4)nc32)CC1 [Example 100] | PI3 Kinase α (Homo sapiens, UniProt P42336) | criterion not met |

Prompt: Does this compound meet the criterion IC50 < 100 nM? COC(Cn1nnc2c(N3CCOCC3)nc(-c3ccc(NC(=O)Nc4ccc(C)cc4)cc3)nc21)OC [Example 179]
Completion: criterion not met

Prompt: Given CC(C)(C)OC(=O)N1CC(n2nnc3c(N4CCOCC4)nc(-c4cccc(O)c4)nc32)C1 [Example 124] , is recorded IC50 strictly lower than 100 nM?
Completion: criterion not met

Prompt: Is IC50 of O=C(O)Cn1nnc2c(N3CCOCC3)nc(-c3cccc(CO)c3)nc21 [Example 240] strictly below 100 nM?
Completion: criterion not met
